assayedSystem: Tenascin-C (Mus musculus, UniProt Q80YX1, FITC-labelled tenascin-C)
assayDetails: isothermal fluorescence titration
measurementType: Kd (nM)
Field: numeric (nM). Do not append units.

Kd reading for CCL26 (protein) TRGSDISKTCCFQYSHKPLPWTWVRSYEFTSNSCSQRAVIFTTKRGKKVCTHPRKKWVQKYISLLKTPKQL : 270
